- Tested on: Colo205 human colon adenocarcinoma cell line (doxorubicin-sensitive)
- Measurement description: MTT assay, cytotoxicity at pH 6 and 7
- Assay type: cell-based
- Reported conditions: Colo205; pH 7; 72 h incubation; read-out: IC50
pIC50: −log10 of the molar value.
// pIC50 lookup, one value per entry
Result type: pIC50

* CC1=C(C)C(C)C(C)=C1C.Cn1ccnc1.Oc1cccc2cccnc12.[Rh+3] [[RhCp*(8HQH−1)(mim)]^+] | 5.14
* Cc1c(C)c(C)[c-](C)c1C.[Cl][Rh+][O]c1cccc2cccnc12 [[RhCp*(8HQH−1)Cl]] | 5.06
* Cc1c(C)c(C)[c-](C)c1C.[Cl-].[Rh+2][O]c1cccc2cccnc12.c1ccncc1 [[RhCp*(8HQH−1)Cl] +Py] | 5.14
* Cc1c(C)c(C)[c-](C)c1C.Clc1ccc(COC(Cn2ccnc2)c2ccc(Cl)cc2Cl)cc1.[Cl-].[Rh+2][O]c1cccc2cccnc12 (racemic) [[RhCp*(8HQH−1)Cl] +econ] | 5.48
